# Target Of Assay: T1, Claudin 18.2 (CLDN18.2), expressed on CHOS-CLDN 18.2 / HEK293-CLDN 18.2 / HCC827-CLDN 18.2 cells (human, UniProt P56856-2 1-261)
# T1 construct: whole, on cells; The species is not repeated for the CHOS-CLDN 18.2 cells; also called claudin-18A2
# Test: FACS, CHOS-CLDN18.2 cells, 1.250 µg/ml
Cut-off 100000 on FACS reading, inclusive. At or above means Y; below means N.

Reference set (3 entries):
| Binder | Label |
| --- | --- |
| QP024025 (antibody, human IgG1, V domains shown, also called IMAB362; 175D10(IMAB362)) VH: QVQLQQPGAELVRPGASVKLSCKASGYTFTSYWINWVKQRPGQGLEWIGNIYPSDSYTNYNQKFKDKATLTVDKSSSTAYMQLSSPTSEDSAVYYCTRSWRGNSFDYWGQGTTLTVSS VL: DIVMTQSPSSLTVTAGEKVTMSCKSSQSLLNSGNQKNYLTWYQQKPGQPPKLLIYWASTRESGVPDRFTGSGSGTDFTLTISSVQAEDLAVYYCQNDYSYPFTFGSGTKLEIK | N |
| QP207208 (antibody, human IgG1, V domains shown, Chimeric; also called 51A3; mouse-derived chimeric antibody QP207208) VH: EVQLQQSGPELVKPGASVKMSCKASGYTFTSYIMHWVKQKPGQGLEWIGYINPYNDGTKYNEKFKGKATLTSDKSSSTVYMELSSLTSEDSAVYCCARLGFTTRNAMDYWGQGTSVTVSS VL: DIVMTQSPSSLSVSAGEKVTMNCKSSQSLLNSGNQKNYLAWYQQKPGQPPKLLIYGASTRESGVPDRFTGSGSGTDFTLTISSVQAEDLAVYYCQNDHSYPFTFGSGTKLEIK | Y |
| QP14631461 (antibody, human IgG1, kappa, V domains shown, also called QP14611463) VH: QVQLVQSGAEVKKPGASVKVSCKASGYTFTSYIMHWVRQAPGQGLEWMGYINPYNDGTKYNEKFKGRVTMTRDTSTSTVYMELSSLRSEDTAVYYCARLGFTTRNAMDYWGQGTLVTVSS VL: DIVMTQSPDSLAVSLGERATINCKSSQSLLNSGNQKNYLAWYQQKPGQPPKLLIYGASTRESGVPDRFTGSGSGTDFTLTISSLQAEDVAVYYCQNDHSYPFTFGQGTKLEIKR | Y |

Prompt line: hey, is FACS reading for this one >= 100000? QP14651460 (antibody, human IgG1, kappa, V domains shown, Humanized from QP207208) VH: EVQLVQSGAEVKKPGASVKVSCKASGYTFTSYIMHWVRQAPGQGLEWIGYINPYNDGTKYNEKFKGRVTLTSDKSTSTVYMELSSLRSEDTAVYYCARLGFTTRNAMDYWGQGTLVTVSS VL: DIVMTQSPDSLAVSLGERATINCKSSQSLLNSGNQKNYLAWYQQKPGQPPKLLIYGASTRESGVPDRFSGSGSGTDFTLTISSLQAEDVAVYYCQNDHSYPFTFGQGTKLEIKR
Response line: Y

Prompt line: hey, is FACS reading for this one >= 100000? QP14641460 (antibody, human IgG1, kappa, V domains shown, Humanized from QP207208) VH: EVQLVQSGAEVKKPGASVKVSCKASGYTFTSYIMHWVRQAPGQGLEWIGYINPYNDGTKYNEKFKGRVTLTRDKSTSTVYMELSSLRSEDTAVYYCARLGFTTRNAMDYWGQGTLVTVSS VL: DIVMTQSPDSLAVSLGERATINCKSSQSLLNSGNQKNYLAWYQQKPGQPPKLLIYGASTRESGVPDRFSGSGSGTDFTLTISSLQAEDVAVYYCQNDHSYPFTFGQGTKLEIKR
Response line: Y

Prompt line: hey, is FACS reading for this one >= 100000? QP14641462 (antibody, human IgG1, kappa, V domains shown, Humanized from QP207208) VH: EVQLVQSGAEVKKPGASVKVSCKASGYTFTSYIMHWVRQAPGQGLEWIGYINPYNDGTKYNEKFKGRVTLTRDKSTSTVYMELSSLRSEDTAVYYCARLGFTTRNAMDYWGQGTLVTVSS VL: DIVMTQSPDSLAVSLGERATINCKSSQSLLNSGNQKNYLAWYQQKPGQPPKLLIYGASTRESGVPDRFTGSGSGTDFTLTISSVQAEDVAVYYCQNDHSYPFTFGQGTKLEIKR
Response line: Y

Where these numbers come from: patent US20230183352A1
